assayed-system: Integrin alpha-IIb/beta-3 (Homo sapiens, UniProt P05106+P08514)
Sequence (P05106 27-788 limits assumed): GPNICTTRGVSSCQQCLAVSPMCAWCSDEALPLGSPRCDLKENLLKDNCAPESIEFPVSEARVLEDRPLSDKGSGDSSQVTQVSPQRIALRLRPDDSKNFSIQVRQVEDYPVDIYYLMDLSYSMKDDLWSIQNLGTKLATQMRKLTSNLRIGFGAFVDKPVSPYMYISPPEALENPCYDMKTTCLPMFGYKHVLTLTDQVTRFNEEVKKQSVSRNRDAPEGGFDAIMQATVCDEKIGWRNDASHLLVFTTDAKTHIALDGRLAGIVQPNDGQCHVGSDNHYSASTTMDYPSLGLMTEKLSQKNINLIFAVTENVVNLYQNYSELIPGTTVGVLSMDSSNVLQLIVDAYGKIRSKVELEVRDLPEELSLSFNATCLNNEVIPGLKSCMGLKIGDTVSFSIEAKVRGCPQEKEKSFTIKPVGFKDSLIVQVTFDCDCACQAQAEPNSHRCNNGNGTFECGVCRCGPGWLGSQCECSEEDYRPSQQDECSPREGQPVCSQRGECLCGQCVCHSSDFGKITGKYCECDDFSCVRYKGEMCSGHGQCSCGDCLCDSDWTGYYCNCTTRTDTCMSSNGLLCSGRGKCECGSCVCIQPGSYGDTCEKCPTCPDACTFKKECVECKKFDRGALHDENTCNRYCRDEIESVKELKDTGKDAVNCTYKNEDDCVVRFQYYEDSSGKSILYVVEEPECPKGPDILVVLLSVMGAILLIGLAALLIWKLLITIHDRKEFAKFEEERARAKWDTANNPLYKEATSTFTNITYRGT
Sequence (P08514 32-887 limits assumed): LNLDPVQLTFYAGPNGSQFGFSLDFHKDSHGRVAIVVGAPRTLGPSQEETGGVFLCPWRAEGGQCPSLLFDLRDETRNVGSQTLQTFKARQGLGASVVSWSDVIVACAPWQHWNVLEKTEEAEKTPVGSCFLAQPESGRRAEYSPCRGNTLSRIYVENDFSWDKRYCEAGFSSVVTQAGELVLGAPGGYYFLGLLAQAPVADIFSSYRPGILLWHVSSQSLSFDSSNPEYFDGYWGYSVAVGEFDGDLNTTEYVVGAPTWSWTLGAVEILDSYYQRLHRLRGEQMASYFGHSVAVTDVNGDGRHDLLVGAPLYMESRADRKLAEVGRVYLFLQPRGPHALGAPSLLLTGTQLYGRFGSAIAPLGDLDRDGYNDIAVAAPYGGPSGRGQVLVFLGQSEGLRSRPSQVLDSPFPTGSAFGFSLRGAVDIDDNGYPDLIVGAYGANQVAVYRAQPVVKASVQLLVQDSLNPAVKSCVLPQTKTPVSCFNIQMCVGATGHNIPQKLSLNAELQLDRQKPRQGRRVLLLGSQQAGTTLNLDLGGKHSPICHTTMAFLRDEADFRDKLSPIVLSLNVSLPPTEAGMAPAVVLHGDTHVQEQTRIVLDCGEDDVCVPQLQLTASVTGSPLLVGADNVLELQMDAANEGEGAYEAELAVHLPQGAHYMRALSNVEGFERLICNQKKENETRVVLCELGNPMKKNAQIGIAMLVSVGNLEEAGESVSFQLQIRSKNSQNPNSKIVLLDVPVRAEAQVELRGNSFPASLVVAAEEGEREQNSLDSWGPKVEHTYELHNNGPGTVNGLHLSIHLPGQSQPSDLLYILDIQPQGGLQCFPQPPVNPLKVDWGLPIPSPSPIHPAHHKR
Sequence (P08514 891-1039 limits assumed): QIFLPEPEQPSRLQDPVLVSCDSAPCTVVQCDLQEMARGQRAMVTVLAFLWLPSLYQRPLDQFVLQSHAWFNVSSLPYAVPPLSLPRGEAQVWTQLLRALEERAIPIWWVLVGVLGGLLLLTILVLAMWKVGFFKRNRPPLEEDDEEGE
method-summary: Tested for inhibition of fibrinogen binding to purified GPIIb/IIIa isolated from human platelets and reconstituted in liposomes
readout: Ki (nM)

Would you please look over these solved cases?
CN1CC(=O)N[C@@H](CCCNC(=N)N)C(=O)NCC(=O)N[C@@H](CC(=O)O)C(=O)Nc2ccccc2SSc2ccccc2C1=O : 143
CC(=O)N[C@@H](CCCN=C(N)N)C(=O)NCC(=O)N[C@@H](CC(=O)O)C(N)=O : 4200
CC(=O)N[C@H]1CSSC(C)(C)[C@@H](C(N)=O)NC(=O)[C@H](CC(=O)O)N(C)C(=O)CNC(=O)[C@H](CCCNC(=N)N)N(C)C1=O (single isomer, unassigned) : 7040
CC(=O)N[C@@H]1C(=O)N[C@@H](CCCN=C(N)N)C(=O)NCC(=O)N[C@@H](CC(=O)O)C(=O)N[C@H](C(N)=O)CSSC1(C)C (single isomer, unassigned) : 188

(P) CN1C(=O)[C@@H]2CCCN2C(=O)c2ccccc2SSc2ccccc2NC(=O)[C@H](CC(=O)O)NC(=O)CNC(=O)[C@@H]1CCCN=C(N)N
(Q) CC(=O)N[C@H]1CSSC(C)(C)[C@@H](C(N)=O)NC(=O)[C@H](CC(=O)O)NC(=O)CNC(=O)[C@H](CCCN=C(N)N)N(C)C(=O)CN(Cc2ccccc2)C1=O (single isomer, unassigned)
# returns the entry with the larger Ki; inputs P and Q Give the label of your selection. P

* * *

assayed-system: Integrin alpha-IIb/beta-3 (Homo sapiens, UniProt P05106+P08514)
method-summary: Tested for inhibition of fibrinogen binding to purified GPIIb/IIIa isolated from human platelets and reconstituted in liposomes
pKi: −log10 of the molar value. Positions of bridges follow the written chain, without caps; N, C: chain ends. Non-standard residues stand in square brackets, D forms with d. Residues, ends and D or L forms follow the SMILES beside them. *: point of attachment. NMeR = CN[C@@H](CCCNC(=N)N)C(=O)O; Pen = CC(C)(S)[C@H](N)C(=O)O; X3 = CC(S)C(=O)*
readout: pKi

CN1C(=O)[C@@H](N)CSSC(C)(C)[C@@H](C(N)=O)NC(=O)[C@H](CC(=O)O)NC(=O)CNC(=O)[C@@H]1CCCN=C(N)N (H-C[NMeR]GD[Pen]-NH2; disulfide 1-5) : 8.03

(A) CN1C(=O)c2ccccc2SSCCNC(=O)[C@@H](CC(=O)O)NC(=O)CNC(=O)[C@H]1CCCNC(=N)N
(B) CC(=O)N[C@H]1CSSC(C)(C)[C@@H](C(N)=O)NC(=O)[C@H](CC(=O)O)NC(=O)CNC(=O)[C@H](CCCN=C(N)N)NC(=O)CNC1=O (single isomer, unassigned)
(C) CC(=O)N[C@H]1CSSC(C)(C)[C@@H](C(N)=O)NC(=O)[C@H](CC(=O)O)NC(=O)CN(C)C(=O)[C@H](CCCN=C(N)N)N(C)C1=O (single isomer, unassigned)
(D) CC(=O)N[C@H]1CSSC(C)(C)[C@@H](C(N)=O)NC(=O)[C@H](CC(=O)O)NC(=O)CNC(=O)[C@H](CCCN=C(N)N)N(C)C(=O)CN(C)C1=O (single isomer, unassigned)
Could you please order the items by pKi, going from the lowest number to the highest? Field: ranking. Enter the labels in the order requested. C, B, D, A
(C: 4.82, B: 6.21, D: 7.70, A: 8.02)

(a) CC(=O)N[C@H]1CSSC(C)(C)[C@@H](C(=O)O)NC(=O)[C@H](CC(=O)O)NC(=O)CNC(=O)[C@H](CCCN=C(N)N)N(C)C1=O (Ac-C[NMeR]GD[Pen]-OH; disulfide 1-5)
(b) CC(S)C(=O)N[C@H]1CSSC(C)(C)[C@@H](C(N)=O)NC(=O)[C@H](CC(=O)O)NC(=O)CNC(=O)[C@H](CCCN=C(N)N)N(C)C1=O (some centres undefined) (X3-C[NMeR]GD[Pen]-NH2; disulfide 1-5)
Please compare: a and b . Report which one has the smaller pKi value. Give the label of your selection. b
(b: 7.61, a: 8.07)

(I) CC(=O)N[C@H]1CSSc2ccccc2NC(=O)[C@H](CC(=O)O)NC(=O)CNC(=O)[C@H](CCCNC(=N)N)N(C)C1=O (single isomer, unassigned)
(II) CCN1C(=O)[C@H](NC(C)=O)CSSC(C)(C)[C@H](C(N)=O)NC(=O)[C@@H](CC(=O)O)NC(=O)CNC(=O)[C@H]1CCCNC(=N)N (single isomer, unassigned)
# returns the entry with the larger pKi; inputs I and II Give the label of your selection. I
(I: 7.59, II: 7.19)
